Target: pooled human IgG (human IgG1,2,3 and 4)
# Enzyme Activity Endpoint Assay (purified): scIgG per entry
propertyName: Enzyme Activity Endpoint Assay (purified): scIgG (ng/µL)

{"columns": ["protein", "measuredResult"],
 "data": [
  ["PRT-501 (protein) MVTSVWTKGVTPPADFTQGEDVFHAPYVANQGWYDITKTFNGKDDLLCGAATAGNMLHWWFDQNKEYIEAYLKKHPEKQKIMFGDQELLDVRKAINTKGSQKNSELFNYFRDKAFPNLSARRLGVMPDLVLDMFINGYYLNVTKTQTTDVNRTYQEKDKRGGIFDAVFTRGDQSKLLTSRHDLKNKGLKEISDLIKQELTEGKALGLSHTYANVRINHVINLWGADFDSDGNLKAIYVTDSDSNASIGMKKYFVGVNSAGKVAISAKEIKEDNIGAQVLGLFTLSTGQDIWNQTNLEHHHHHH", 0],
  ["PRT-447 (protein) MVTSVWTKGVTPPTDFIKGEDVFHAPYKAGQGWYDITKAFDGGDDLLCGAATAGNMLHWWFDQNKDQIEAYLKEHPEKQKINFNGEQMFDVKEAIDTKDDQTNSELFNYFKEKAFPYLSTKHLGVFPDHVLDMFINGYRLSLTNHGPTPVKEGSKDPRGGIFDAVFTRGDQSKLLTSRHDFKEKTLKEISDLIKQELTEGKALALSHTYANVRINHVINLWGADFDSNGNLEAIYVTDSDSNASIGMKKYFVGVNSAGKVAISAKEIEDDNIGAQVLGLFTLSTGQDIWNQTNLEHHHHHH", 0]
]}
